System Tested: UniProt P40493
Sequence (P40493 whole entry): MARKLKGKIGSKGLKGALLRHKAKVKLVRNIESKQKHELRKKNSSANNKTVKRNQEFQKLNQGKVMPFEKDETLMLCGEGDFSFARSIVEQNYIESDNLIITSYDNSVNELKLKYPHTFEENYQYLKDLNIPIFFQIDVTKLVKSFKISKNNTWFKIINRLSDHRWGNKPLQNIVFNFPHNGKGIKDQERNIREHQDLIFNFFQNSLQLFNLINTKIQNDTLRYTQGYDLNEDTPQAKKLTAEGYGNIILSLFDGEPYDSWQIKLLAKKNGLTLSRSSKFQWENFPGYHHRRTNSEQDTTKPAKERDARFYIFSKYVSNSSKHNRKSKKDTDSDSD
Measurement Type: pKd
Scale explanation: pKd corresponds to minus log10 of a concentration expressed in moles per litre.

Req: Reported pKd for C[S+](CC[C@H](N)C(=O)O)C[C@H]1O[C@@H](n2cnc3c(N)ncnc32)[C@H](O)[C@@H]1O (stereo partly shown) : what is it?
Resp: 3.96
